Biological target: Delta-Opioid Receptor (Mus musculus)
Construct: host or cells: NG108-15
Sequence (P32300 whole entry): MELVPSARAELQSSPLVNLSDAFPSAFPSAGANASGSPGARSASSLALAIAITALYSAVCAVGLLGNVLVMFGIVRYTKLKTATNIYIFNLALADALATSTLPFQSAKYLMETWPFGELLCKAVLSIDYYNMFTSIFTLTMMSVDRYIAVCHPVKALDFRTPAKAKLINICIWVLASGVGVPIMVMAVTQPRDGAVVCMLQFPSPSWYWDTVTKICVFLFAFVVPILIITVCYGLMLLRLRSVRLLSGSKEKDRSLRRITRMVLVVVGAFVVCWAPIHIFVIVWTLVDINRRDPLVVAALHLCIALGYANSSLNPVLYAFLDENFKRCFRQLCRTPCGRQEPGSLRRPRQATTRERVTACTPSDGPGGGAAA
Experiment: Delta-opioid receptor binding: inhibition of specific binding of 3H NID to intact NG108-15 cells
Conditions: EC50 (M), competition with 3H NID, intact NG108-15 cells, 2 hr at 37° C.
test-readout: EC50 (M)

- O=C(O)CN1CCN(CC(=O)O)CCN(CC(=O)O)C(Cc2ccc(NC(=O)CCCCCNC(=O)Cn3c4c(c5ccccc53)CC3(O)C5Cc6ccc(O)c7c6C3(CCN5CC3CC3)C4O7)cc2)CN(CC(=O)O)CC1 (stereo not shown): 1.2e-08
